Ref: ChEMBL document CHEMBL4513216

For each of the compounds below, state its cytotoxicity at 10 µM.
measurementNotes: Toxicity liver stage against HepG2, at 10uM
Assay type: cell-based
Set-up: test concentration 10 uM, cell line HepG2-A16-CD81EGFP
experimentalContext: human, HepG2-A16-CD81EGFP cells; read-out: INHIBITION
Express the result in % but write the number alone.

Param item = `CCC1=N[C@@]2(CC[C@@H]3CN(CC)C[C@@H]32)C(=O)N1C` ; retrieve measured cytotoxicity at 10 µM. -102

Param item = `N#CCCN(Cc1ccccn1)C(=O)c1cccc(CN2CCCC2)c1` ; retrieve measured cytotoxicity at 10 µM. 4.93

Param item = COc1cccc(S(=O)(=O)CCNC(C)Cn2cccn2)c1 (configuration not stated) ; retrieve measured cytotoxicity at 10 µM. -3.34

Param item = `O=C(NCc1csc2ccc(Cl)cc12)c1cc2n(n1)CCNC2` ; retrieve measured cytotoxicity at 10 µM. -0.699

Param item = `CCn1cc(-c2nn3c(C(F)(F)F)nnc3s2)c(C)n1` ; retrieve measured cytotoxicity at 10 µM. 13.5

Param item = CC(C)CN1CCCC2(CCN(C(=O)c3cnccn3)C2)C1 (configuration not stated) ; retrieve measured cytotoxicity at 10 µM. 2.39

Param item = Cc1n[nH]c(C2CN(C(=O)c3ccc4c(c3)COC4)CCO2)n1 (configuration not stated) ; retrieve measured cytotoxicity at 10 µM. 17.4

Param item = CC(C)N(Cc1ccccc1)C(=O)c1cc(C2CCCN2C)ccn1 (configuration not stated) ; retrieve measured cytotoxicity at 10 µM. -18.7

Param item = `Cc1noc(C(C)C)c1C(=O)NCc1cccnc1` ; retrieve measured cytotoxicity at 10 µM. 3.93

Param item = CC(C)C(NCc1ccc(Cn2cncn2)cc1)c1ccccc1 (configuration not stated) ; retrieve measured cytotoxicity at 10 µM. 4.1

Param item = `O=C(Nc1cccnc1-n1cc(Br)cn1)C1CCCC1` ; retrieve measured cytotoxicity at 10 µM. -33.1

Param item = `Cc1ccc(CN(CCN(C)C)C(=O)Cc2cn3ccccc3n2)o1` ; retrieve measured cytotoxicity at 10 µM. -5.1

Param item = CNc1nc(C2CCCN(C(=O)C(C)C)C2)nc2c1CN(C)CC2 (configuration not stated) ; retrieve measured cytotoxicity at 10 µM. -16.3

Param item = Cn1cnnc1C1CCCN1C(=O)Nc1cccc(OC(F)F)c1 (configuration not stated) ; retrieve measured cytotoxicity at 10 µM. 8.25

Param item = `O=C(CC1CCC2(CC1)CCN(Cc1cccnc1)CC2)N1CC=CC1` ; retrieve measured cytotoxicity at 10 µM. -2.13

Param item = `COc1cccc(CNCc2ccccc2Cl)c1O` ; retrieve measured cytotoxicity at 10 µM. -13.2

Param item = `COc1ccc2nnc(CCC(=O)Nc3nc4c(s3)CCC4)n2n1` ; retrieve measured cytotoxicity at 10 µM. -4.8

Param item = `COc1ccc(C(=O)N2CCCS2(=O)=O)cc1` ; retrieve measured cytotoxicity at 10 µM. -1.88

Param item = Cc1[nH]ncc1C(=O)N1CCCC(c2ccn[nH]2)C1 (configuration not stated) ; retrieve measured cytotoxicity at 10 µM. 0.23

Param item = COc1ccc(CNC(c2cccc(F)c2)c2cnn(C)c2)cc1 (configuration not stated) ; retrieve measured cytotoxicity at 10 µM. 4.91

Param item = `C=C(C)Cn1nc(C)c(CN2CCN(C3CCCCC3)C(=O)C2)c1C` ; retrieve measured cytotoxicity at 10 µM. 4.59

Param item = `O=S(=O)(c1ccc(N2CCCCC2)c2nonc12)N1CCCCC1` ; retrieve measured cytotoxicity at 10 µM. 6.74

Param item = `Cn1cc(N)c(-c2nnc3n2CCCC3)n1` ; retrieve measured cytotoxicity at 10 µM. -6.83

Param item = COc1cccc(CC2CN(C3CCCCC3)CCO2)c1 (configuration not stated) ; retrieve measured cytotoxicity at 10 µM. -11.9

Param item = `Cc1cnccc1CN1C[C@@H](O)[C@H](Oc2cccc(F)c2)C1` ; retrieve measured cytotoxicity at 10 µM. 2.21

Param item = `COCCN1CCc2cc(C(=O)NC(C)C)c(NCC(C)C)nc2CC1` ; retrieve measured cytotoxicity at 10 µM. -163

Param item = `Cc1cc(CN2CC[C@H]3C(=O)N(c4ccccc4)CCO[C@H]3C2)no1` ; retrieve measured cytotoxicity at 10 µM. -5.59

Param item = CCn1nc(C)c(NC(=O)CN(C)C(C)c2nccs2)c1C (configuration not stated) ; retrieve measured cytotoxicity at 10 µM. -143

Param item = `CN(Cc1ccccc1)CC(C)(C)NC(=O)c1ccc(C(N)=O)cn1` ; retrieve measured cytotoxicity at 10 µM. -0.616

Param item = `CCc1nccn1CC(=O)N1C[C@@H]2CC[C@H]1CN(S(=O)(=O)N(C)C)C2` ; retrieve measured cytotoxicity at 10 µM. -6.38

Param item = `CC(C)(C)NC(=O)N1CCN(Cc2cccnc2)CC1` ; retrieve measured cytotoxicity at 10 µM. 10.3

Param item = `COc1ccc(CN2CCn3cc(CN4CCN(C)CC4)nc3C2)cc1` ; retrieve measured cytotoxicity at 10 µM. -0.00161

Param item = `Cc1ccc(CN(C)C(=O)CNC(C)(C)c2noc(C(C)(C)C)n2)o1` ; retrieve measured cytotoxicity at 10 µM. 2.43

Param item = `Cc1ccc(CC(=O)N2CCn3cc(Cn4cncn4)nc3C2)cc1` ; retrieve measured cytotoxicity at 10 µM. -138

Param item = CC(C)c1nc(C2CCCN2Cc2ccn(C)c(=O)c2)no1 (configuration not stated) ; retrieve measured cytotoxicity at 10 µM. -12.2

Param item = O=C(NCc1ccnc(OCC(F)(F)F)c1)NCC1CCCO1 (configuration not stated) ; retrieve measured cytotoxicity at 10 µM. -4.05

Param item = CCc1n[nH]c(C2CN(C(=O)c3cnc(C)nc3CC)CCO2)n1 (configuration not stated) ; retrieve measured cytotoxicity at 10 µM. -3.39

Param item = `Cn1c(CS(=O)(=O)Cc2cccc(Cl)c2)cc(=O)n(C)c1=O` ; retrieve measured cytotoxicity at 10 µM. 8.17

Param item = `CNC(=O)[C@@H]1CN(C(=O)C2CCC2)C[C@H]1c1ccnc(N2CCCC2)n1` ; retrieve measured cytotoxicity at 10 µM. -3.21

Param item = `CCc1ccc(C(=O)NC[C@H]2CCCN2C(=O)c2ccc(CC)o2)o1` ; retrieve measured cytotoxicity at 10 µM. -5.54

Param item = `CN(Cc1ccon1)C1CCN(c2cccc(-c3cscn3)c2)CC1` ; retrieve measured cytotoxicity at 10 µM. -3.96

Param item = `CCNC(=O)[C@@H]1C[C@@H](N)CN1Cc1ccc(Sc2ccc(C)cc2)o1` ; retrieve measured cytotoxicity at 10 µM. -53.4

Param item = `Cc1ccc(N2C[C@H]3CCC[C@@H](CN4CCOCC4)[C@H]3C2)nn1` ; retrieve measured cytotoxicity at 10 µM. 10.7

Param item = `CNc1nc2cn(CCc3ccccc3)c(=O)c-2c[nH]1` ; retrieve measured cytotoxicity at 10 µM. 7.77

Param item = Cc1noc(C(C)C)c1C(=O)NCC(c1ccsc1)N(C)C (configuration not stated) ; retrieve measured cytotoxicity at 10 µM. -5.18

Param item = C=C(C)COc1cccc(CNC(CC(C)C)c2ncnn2C)c1 (configuration not stated) ; retrieve measured cytotoxicity at 10 µM. 1.16

Param item = CS(=O)(=O)N1CCCC12CCCN(C(=O)c1ccc3c(c1)OCO3)C2 (configuration not stated) ; retrieve measured cytotoxicity at 10 µM. -144
